Origin of measurements: patent US20150037348A1

TEST_TARGET: T1, recombinant human IL-12 (rhIL-12) (human, UniProt P29459 23-219; P29460 23-328)
T1 sequence (looked up) 1: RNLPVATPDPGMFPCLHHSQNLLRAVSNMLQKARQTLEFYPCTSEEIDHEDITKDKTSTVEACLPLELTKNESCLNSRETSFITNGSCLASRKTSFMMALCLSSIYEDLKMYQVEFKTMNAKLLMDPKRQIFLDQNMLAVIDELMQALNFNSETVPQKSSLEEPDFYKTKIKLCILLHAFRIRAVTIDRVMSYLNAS
T1 sequence (looked up) 2: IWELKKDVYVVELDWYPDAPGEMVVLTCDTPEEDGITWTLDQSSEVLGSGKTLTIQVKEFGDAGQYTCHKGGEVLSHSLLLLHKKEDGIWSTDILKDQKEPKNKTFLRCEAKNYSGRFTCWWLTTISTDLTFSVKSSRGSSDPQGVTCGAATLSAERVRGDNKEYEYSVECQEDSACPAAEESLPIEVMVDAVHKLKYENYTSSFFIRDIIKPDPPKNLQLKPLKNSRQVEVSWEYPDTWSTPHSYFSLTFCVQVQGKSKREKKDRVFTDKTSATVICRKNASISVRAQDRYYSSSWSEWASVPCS
ASSAY_PROCEDURE: cell-based or functional assay
QUANTITY: PHA assay IC50 (nM)

binder="AO3 IgG germline (antibody, V domains shown, IgG with germline frameworks as named; only the CDR3s are tied to it) VH: QVQLVESGGGVVQPGRSLRLSCAASGFTFSSYGMHWVRQAPGKGLEWVAFIRYDGSNKYYADSVKGRFTISRDNSKNTLYLQMNSLRAEDTAVYYCKTHGSHDNWGQGTMVTVSS VL: QSVLTQPPSVSGAPGQRVTISCSGSRSNIGSNTVKWYQQLPGTAPKLLIYGNDQRPSGVPDRFSGSKSGTSASLAITGLQAEDEADYYCQSYDRGTHPLTMFGTGTKVTVL" readout_number=0.175
binder="Y45 (scFv, V domains shown, scFv clone) VH: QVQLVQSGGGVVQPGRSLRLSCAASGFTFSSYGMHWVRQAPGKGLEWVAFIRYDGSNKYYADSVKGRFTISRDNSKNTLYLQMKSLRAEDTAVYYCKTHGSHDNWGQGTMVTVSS VL: SYVLTQPPSVSGTPGQRVTISCSGGRSNIGSNTVKWYQQLPGTAPKLLIYGNDQRPSGVPDRFSGSKSGTSASLAITGVQAEDEADYYCQSYDRGTDPAIVFGTGTKVTVL" readout_number=4.3
binder="Y174 (scFv, V domains shown, scFv clone) VH: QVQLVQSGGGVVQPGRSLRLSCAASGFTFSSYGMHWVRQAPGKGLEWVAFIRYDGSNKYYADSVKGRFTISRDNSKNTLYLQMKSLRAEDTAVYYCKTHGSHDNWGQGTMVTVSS VL: SYVLTQPPSVSGTPGQRVTISCSGGRSNIGSNTVKWYQQLPGTAPKLLIYGNDQRPSGVPDRFSGSKSGTSASLAITGVQAEDEADYYCQSYDRGTTPAPEFGTGTKVTVL" readout_number=2
